# Study system: T1, cynomolgus DLL4 overexpressed on cells (cynomolgus, UniProt Q9NR61 27-685 (human entry))
# T1 construct: also called cyno DII4; cDLL4
# T1 chain: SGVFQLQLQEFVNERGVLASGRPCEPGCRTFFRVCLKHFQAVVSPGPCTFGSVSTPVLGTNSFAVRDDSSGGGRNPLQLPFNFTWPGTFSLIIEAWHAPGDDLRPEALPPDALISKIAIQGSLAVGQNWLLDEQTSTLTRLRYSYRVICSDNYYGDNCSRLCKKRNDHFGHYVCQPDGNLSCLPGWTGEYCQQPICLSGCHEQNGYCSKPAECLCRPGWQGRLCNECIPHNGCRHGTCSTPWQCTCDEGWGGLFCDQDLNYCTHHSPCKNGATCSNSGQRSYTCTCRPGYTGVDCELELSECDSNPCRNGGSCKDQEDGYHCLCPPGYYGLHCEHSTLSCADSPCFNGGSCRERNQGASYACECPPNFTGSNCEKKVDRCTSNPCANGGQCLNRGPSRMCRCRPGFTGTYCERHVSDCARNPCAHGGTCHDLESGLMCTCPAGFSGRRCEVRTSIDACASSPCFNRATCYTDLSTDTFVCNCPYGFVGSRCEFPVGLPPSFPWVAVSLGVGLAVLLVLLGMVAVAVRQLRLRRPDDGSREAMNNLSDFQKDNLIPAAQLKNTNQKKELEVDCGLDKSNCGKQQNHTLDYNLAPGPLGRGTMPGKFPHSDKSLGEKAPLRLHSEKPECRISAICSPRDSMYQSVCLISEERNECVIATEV
# Protocol: FACS titration on HEK293-cDLL4 cells, MCF
Observed property: EC50 (read off the curve)

Any idea what EC50 (read off the curve) was measured for DLLBII115A05 (VHH, also called 115A5; DLLBII115A5) VHH: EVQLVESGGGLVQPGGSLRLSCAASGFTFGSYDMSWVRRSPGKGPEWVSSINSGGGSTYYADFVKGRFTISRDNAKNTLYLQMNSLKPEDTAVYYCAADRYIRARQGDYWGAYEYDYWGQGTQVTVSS ?
~4 nM

Can you share its EC50 (read off the curve)? I mean this binder: DLLBII56A09 (VHH, also called 56A9; DLLBII56A9) VHH: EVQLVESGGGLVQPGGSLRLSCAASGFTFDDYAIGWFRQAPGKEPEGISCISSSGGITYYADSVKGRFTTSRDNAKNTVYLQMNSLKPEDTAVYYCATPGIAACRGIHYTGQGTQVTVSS
~3 nM

Given the entry DLLBII56H08 (VHH) VHH: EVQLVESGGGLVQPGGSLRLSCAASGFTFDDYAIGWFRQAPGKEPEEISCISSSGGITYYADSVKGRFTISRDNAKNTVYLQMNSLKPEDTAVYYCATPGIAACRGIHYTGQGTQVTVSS , report its measured EC50 (read off the curve).
~4 nM

Fill blank: measured EC50 (read off the curve) of the binder DLLBII56C04 (VHH) VHH: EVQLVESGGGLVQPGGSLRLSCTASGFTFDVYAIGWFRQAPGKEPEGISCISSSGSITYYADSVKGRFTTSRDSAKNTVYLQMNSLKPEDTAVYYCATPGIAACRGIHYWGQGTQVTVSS is ____.
~6 nM

Given the binder DLLBII55D12 (VHH) VHH: EVQLVESGGGLVQPGGSLRLSCAASGFTFDDYAIGWFRQAPGKEPEGISCISSSGGITYYADSVKGRFTISRDNAKNTVYLQMNSLKPEDTAVYYCATPGIAACRGIHYTGQGTQVTVSS , what is its reported EC50 (read off the curve)?
~6 nM

EC50 (read off the curve) lookup needed for DLLBII104G01 (VHH, also called 104G1) VHH: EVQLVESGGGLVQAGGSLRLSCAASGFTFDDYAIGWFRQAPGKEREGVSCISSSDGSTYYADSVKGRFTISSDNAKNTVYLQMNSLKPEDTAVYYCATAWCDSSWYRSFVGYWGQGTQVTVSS , thanks.
~5 nM

Fill in the blank: the reported EC50 (read off the curve) of DLLBII101G08 (VHH, also called 101G8; DLLBII101G8) VHH: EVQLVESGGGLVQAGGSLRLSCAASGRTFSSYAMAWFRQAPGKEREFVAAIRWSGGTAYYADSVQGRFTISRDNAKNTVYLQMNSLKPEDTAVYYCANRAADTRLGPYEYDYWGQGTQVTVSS is ____.
~9 nM

Report EC50 (read off the curve) for DLLBII57C11 (VHH) VHH: EVQLVESGGGLVQPGGSLRLSCTASGFTFDDYAIGWFRQAPGKEPEGISCISSSGSITYDADSVKGRFTISRDNAKNTVYLQMNSLKPEDTAVYYCATPGIAACRGIHYWGQGTQVTVSS please.
~10 nM
